These entries and their values trace back to ChEMBL document CHEMBL5500359.

Assay: Cytotoxicity against human HDFa cells assessed as reduction in cell viability incubated for 24 hrs by MTT assay
Format: toxicity, cell-based
quantityKind: IC50 at 24 h (µM)
Answers are plain numbers, in µM.

Returns the measured IC50 at 24 h for the input compound. Input: `CC(C)(C)c1cc(/C=C2/C(=O)Nc3cc(Cl)ccc32)c(O)c(/C=C2/C(=O)Nc3cc(Cl)ccc32)c1`
21.9

====

System: Panel NCI-60 (60 carcinoma cell lines)
Test: Cell growth inhibition of human Panel NCI-60 (60 carcinoma cell lines) incubated for 48 hrs by SRB assay
Assay type: functional
quantityKind: GI50 (nM)
Numbers only, in nM.

Worked set:
O=C1Nc2ccc(F)cc2/C1=C\c1cccc(/C=C2/C(=O)Nc3ccc(F)cc32)c1 = 1620
CC[C@]1(O)C[C@H]2CN(CCc3c([nH]c4ccccc34)[C@@](C(=O)OC)(c3cc4c(cc3OC)N(C=O)[C@H]3[C@@](O)(C(=O)OC)[C@H](OC(C)=O)[C@]5(CC)C=CCN6CC[C@]43[C@@H]65)C2)C1 = 200
COc1ccc(OC)c2c1NC(=O)/C2=C/c1cccc(/C=C2/C(=O)Nc3c(OC)ccc(OC)c32)c1 = 5890
COc1cc2c(cc1C)NC(=O)/C2=C/c1ccc2ccc3ccc(/C=C4/C(=O)Nc5cc(C)c(OC)cc54)nc3c2n1 = 5130
COc1ccc2[nH]c(Cl)c(/C=C3/C(=O)N(C)c4cc5c(cc43)/C(=C\c3c(Cl)[nH]c4ccc(OC)cc34)C(=O)N5C)c2c1 = 2040

// batch mode: one GI50 value per listed entry
1. COc1cc2c(c(OC)c1OC)C(=Cc1cc(C(C)(C)C)cc(/C=C3\C(=O)Nc4cc(OC)c(OC)c(OC)c43)c1O)C(=O)N2
2. O=C1Nc2ccc(Cl)cc2/C1=C\c1ccc2ccc3ccc(/C=C4/C(=O)Nc5ccc(Cl)cc54)nc3c2n1

1. 1950
2. 2630

====

Tested on: Panel NCI-60 (60 carcinoma cell lines)
Test: Cell growth inhibition of human Panel NCI-60 (60 carcinoma cell lines) incubated for 48 hrs by SRB assay
Format: functional
Record form. Attribute: GI50. Fill in for each entry.

Worked examples, 3 compounds total:
CN(C)c1ccc2[nH]c(Cl)c(/C=C3/C(=O)N(C)c4cc5c(cc43)/C(=C\c3c(Cl)[nH]c4ccc(N(C)C)cc34)C(=O)N5C)c2c1 = 14400 nM
O=C1Nc2cc(Cl)ccc2/C1=C\c1cccc(/C=C2/C(=O)Nc3cc(Cl)ccc32)c1 = 2570 nM
CC(C)(C)c1cc(/C=C2/C(=O)Nc3cc(Cl)ccc32)c(O)c(/C=C2/C(=O)Nc3cc(Cl)ccc32)c1 = 3020 nM

Pending compound:
Form: Entry = `Cc1cc2c(cc1O)/C(=C\c1cc(C(C)(C)C)cc(C=O)c1O)C(=O)N2` | System = Panel NCI-60 (60 carcinoma cell lines) | GI50 = ____
1910 nM

====

Test system: Melanoma cell line
Experiment: Cell growth inhibition of human Melanoma cells incubated for 48 hrs by SRB assay
Format: functional
Please provide measured GI for the entries that follow.
Answer with the value and then the unit.

O=C1Nc2cc(Cl)ccc2/C1=C\c1cccc(/C=C2/C(=O)Nc3cc(Cl)ccc32)c1 = 2.19 µM
COc1ccc(OC)c2c1NC(=O)/C2=C/c1cccc(/C=C2/C(=O)Nc3c(OC)ccc(OC)c32)c1 = 7.24 µM
O=C1Nc2ccc(Cl)cc2/C1=C\c1ccc2ccc3ccc(/C=C4/C(=O)Nc5ccc(Cl)cc54)nc3c2n1 = 2.19 µM

Items follow; give GI for each.
1. CC[C@]1(O)C[C@H]2CN(CCc3c([nH]c4ccccc34)[C@@](C(=O)OC)(c3cc4c(cc3OC)N(C=O)[C@H]3[C@@](O)(C(=O)OC)[C@H](OC(C)=O)[C@]5(CC)C=CCN6CC[C@]43[C@@H]65)C2)C1
2. O=C1Nc2cccc(F)c2/C1=C\c1cccc(/C=C2/C(=O)Nc3cccc(F)c32)c1

1. 0.16 µM
2. 1.7 µM
